# experimental.target: human sodium channels Nav 1.8 (Homo sapiens, UniProt Q9Y5Y9)
# Sequence (Q9Y5Y9 whole entry): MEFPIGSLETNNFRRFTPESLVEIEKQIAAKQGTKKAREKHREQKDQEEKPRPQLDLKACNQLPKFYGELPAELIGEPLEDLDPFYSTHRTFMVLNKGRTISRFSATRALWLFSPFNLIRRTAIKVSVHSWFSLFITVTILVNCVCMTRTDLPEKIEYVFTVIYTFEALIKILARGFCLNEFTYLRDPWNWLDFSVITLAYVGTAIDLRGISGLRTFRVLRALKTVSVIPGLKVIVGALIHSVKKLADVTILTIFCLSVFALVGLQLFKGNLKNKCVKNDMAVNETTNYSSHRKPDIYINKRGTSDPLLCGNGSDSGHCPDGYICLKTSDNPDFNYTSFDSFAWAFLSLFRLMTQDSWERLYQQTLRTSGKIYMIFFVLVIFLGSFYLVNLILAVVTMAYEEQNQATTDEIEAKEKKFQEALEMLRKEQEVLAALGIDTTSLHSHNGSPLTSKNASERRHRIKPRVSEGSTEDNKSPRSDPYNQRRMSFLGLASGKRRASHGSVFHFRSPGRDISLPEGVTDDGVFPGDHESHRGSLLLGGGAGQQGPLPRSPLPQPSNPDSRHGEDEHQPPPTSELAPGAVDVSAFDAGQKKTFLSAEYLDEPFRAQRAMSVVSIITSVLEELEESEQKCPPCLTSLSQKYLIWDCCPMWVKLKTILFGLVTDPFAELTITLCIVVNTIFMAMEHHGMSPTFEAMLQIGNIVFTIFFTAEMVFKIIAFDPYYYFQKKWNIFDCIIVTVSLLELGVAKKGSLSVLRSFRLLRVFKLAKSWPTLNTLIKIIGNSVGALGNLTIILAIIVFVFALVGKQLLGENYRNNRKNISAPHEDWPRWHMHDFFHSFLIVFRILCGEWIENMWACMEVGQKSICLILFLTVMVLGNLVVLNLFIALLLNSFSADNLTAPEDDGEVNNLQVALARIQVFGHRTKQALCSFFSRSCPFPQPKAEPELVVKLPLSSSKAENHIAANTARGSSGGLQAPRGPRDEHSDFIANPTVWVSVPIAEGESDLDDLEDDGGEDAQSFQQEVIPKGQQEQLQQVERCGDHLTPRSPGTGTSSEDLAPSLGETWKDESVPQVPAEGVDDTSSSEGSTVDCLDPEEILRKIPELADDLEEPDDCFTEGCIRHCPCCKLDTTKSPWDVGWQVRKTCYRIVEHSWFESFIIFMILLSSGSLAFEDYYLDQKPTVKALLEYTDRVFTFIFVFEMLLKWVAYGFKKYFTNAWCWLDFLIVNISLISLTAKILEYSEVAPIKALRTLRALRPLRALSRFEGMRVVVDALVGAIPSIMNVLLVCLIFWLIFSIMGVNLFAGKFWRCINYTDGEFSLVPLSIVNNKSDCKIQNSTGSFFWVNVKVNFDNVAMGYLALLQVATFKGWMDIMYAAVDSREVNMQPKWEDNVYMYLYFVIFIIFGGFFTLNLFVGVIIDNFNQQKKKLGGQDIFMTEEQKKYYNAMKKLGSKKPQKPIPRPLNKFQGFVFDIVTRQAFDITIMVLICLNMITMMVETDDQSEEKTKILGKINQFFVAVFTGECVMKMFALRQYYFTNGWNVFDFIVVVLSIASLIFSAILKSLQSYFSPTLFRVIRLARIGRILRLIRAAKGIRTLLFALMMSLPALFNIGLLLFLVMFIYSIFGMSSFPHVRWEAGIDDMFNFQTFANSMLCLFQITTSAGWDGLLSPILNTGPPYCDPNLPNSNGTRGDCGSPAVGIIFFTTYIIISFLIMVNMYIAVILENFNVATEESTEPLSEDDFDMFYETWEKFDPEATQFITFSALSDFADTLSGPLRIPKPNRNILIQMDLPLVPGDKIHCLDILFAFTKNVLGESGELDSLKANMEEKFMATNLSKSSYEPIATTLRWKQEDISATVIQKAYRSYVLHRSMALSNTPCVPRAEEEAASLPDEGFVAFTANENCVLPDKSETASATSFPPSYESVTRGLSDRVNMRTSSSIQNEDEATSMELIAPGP
# protocol.notes: Automated whole-cell voltage-clamp (ScreenPatch 384P) sodium current block, Nav 1.8
# condition.summary: CHO cells stably expressing human Nav 1.8; inactivation step -40 mV 8 s, test step 10 mV (TP1A); eight concentrations; exposure at least five minutes; room temperature; read-out: Nav1.8 IC50
# Protocol: Biological assays were performed on Chinese hamster ovary (CHO) cells that express human sodium channels Nav 1.8 or Nav 1.7 in a stable manner. The experimental protocol voltage-clamp using the whole cell configuration was established on the automated ScreenPatch® 384P platform (SP384PE, Nanion Technologies, Livingston, NJ) and the results were recorded with a Nanion 384-well Patch Clamp chip (NPC) (Nanion Technologies, Livingston, NJ). […]
pIC50: −log10 of the molar value.
readout.name: pIC50

COc1cnc(F)c(/C=N/NC(=O)c2cncc(-c3ccc(OC(F)(F)F)nc3)n2)c1: > 6.30
COc1cc(/C=N/NC(=O)c2cncc(-c3ccc(OC4CC4)nc3)n2)c(F)cc1F: > 6.30
COc1ccc(O)c(/C=N/NC(=O)c2cncc(-c3ccc(OC(F)F)nc3)n2)c1: < 6.00
O=C(N/N=C/c1cccnc1)c1cncc(-c2ccc(OC(F)(F)F)nc2)n1: < 6.00
CCOc1ccc(-c2cncc(C(=O)N/N=C/c3cncc(OC)c3)n2)cn1: > 6.30
CCOc1ccc(-c2cccc(C(=O)N/N=C/c3cc(OC)cnc3F)n2)cn1: > 6.30
COc1cnc(F)c(/C=N/NC(=O)c2ccnc(-c3ccc(OC(F)F)nc3)n2)c1: 6.00 to 6.30
COc1ccc(F)c(/C=N/NC(=O)c2cncc(-c3ccc(OCCC4CNC4)nc3)n2)c1: < 6.00
CCOc1ccc(-c2cncc(C(=O)N/N=C/c3cc(C(C)O)ccc3F)n2)cn1 (stereo not drawn): > 6.30
CCOc1ccc(-c2cncc(C(=O)N/N=C/c3cc(OC)cc(O)c3F)n2)cn1: < 6.00
CCOc1ccc(-c2cncc(C(=O)N/N=C/c3ccc(F)c(OC)c3)n2)cn1: > 6.30
O=C(N/N=C/c1ccccn1)c1cncc(-c2ccc(OC(F)(F)F)nc2)n1: < 6.00
CN(C)c1cnc(F)c(/C=N/NC(=O)c2cncc(-c3ccc(OC(F)F)nc3)n2)c1: < 6.00
O=C(N/N=C/c1cc(OC2CC2)ccc1F)c1cncc(-c2ccc(OC3CC3)nc2)n1: > 6.30
COc1cccc(/C=N/NC(=O)c2cncc(-c3ccc(OC(F)(F)F)nc3)n2)c1: > 6.30
COc1cc(/C=N/NC(=O)c2cncc(-c3ccc(OC(F)F)nc3)n2)c(F)cn1: 6.00 to 6.30
COc1ccc(F)c(/C=N/NC(=O)c2cncc(-c3cnc4nc[nH]c4c3)n2)c1: < 6.00
CCOc1ccc(-c2cncc(C(=O)N/N=C/c3cc(N4CCC4)ccc3F)n2)cn1: > 6.30
CCOc1ccc(-c2cncc(C(=O)N/N=C/c3ccnn3C)n2)cn1: < 6.00
CCOc1ccc(-c2cncc(C(=O)N/N=C/c3cc(OC)ccn3)n2)cn1: > 6.30
CCOc1ccc(-c2cncc(C(=O)N/N=C/c3cc(OC)ncc3F)n2)cn1: 6.00 to 6.30
CCOc1ccc(-c2cncc(C(=O)N(C)/N=C/c3cc(OC)cnc3F)n2)cn1: < 6.00
COc1ccc(F)c(/C=N/NC(=O)c2cncc(-c3ccc(OCCO)nc3)n2)c1: < 6.00
CCOc1ccc(-c2cncc(C(=O)N/N=C/c3cncn3C(C)C)n2)cn1: < 6.00
CCOc1ccc(-c2cncc(C(=O)N/N=C/c3cc(OC)cnc3C)n2)cn1: > 6.30
[2H]C([2H])([2H])Oc1cnc(F)c(/C=N/NC(=O)c2cncc(-c3ccc(OCC)nc3)n2)c1: > 6.30
CCOc1ccc(-c2cncc(C(=O)N/N=C/c3cc(OC4CCC4)ccc3F)n2)cn1: > 6.30
CCOc1ccc(-c2cncc(C(=O)N/N=C/c3cc(N4CC(O)C4)ccc3F)n2)cn1: < 6.00
CC(O)c1ccnc(/C=N/NC(=O)c2cncc(-c3ccc(OC(F)F)nc3)n2)c1 (stereo not drawn): < 6.00
[2H]C([2H])([2H])C([2H])([2H])Oc1ccc(-c2cncc(C(=O)N/N=C/c3cc(OC)cnc3F)n2)cn1: > 6.30
CCOc1ccc(-c2cncc(C(=O)N/N=C/c3occc3OC)n2)cn1: < 6.00
CC[S+]([O-])c1ccc(-c2cncc(C(=O)N/N=C/c3cc(OC)ccc3F)n2)cn1 (stereo not drawn): < 6.00
CC(C)Oc1ccc(F)c(/C=N/NC(=O)c2cncc(-c3ccc(OC4CC4)nc3)n2)c1: > 6.30

The origin of these recorded values is patent EP4660182A1.
